All values here come from patent US20230263822A1.

We begin with a simple list: items and their reported pIC50.
System: human Factor 11 mRNA
Test: Dose-dependent antisense inhibition of human Factor 11 in HepG2 cells, lipofectin 9.375-150 nM (Example 2)
Format: cell-based
Settings: ~16 h
pIC50: −log10 of the molar value. Strand notation (5' to 3'): a small letter for the sugar, then the base; units joined by * are phosphorothioate-linked, units joined directly phosphodiester-linked; [ ] holds rarer units or linkages, { } end groups; capitals alone tell only the bases. e = 2'-O-(2-methoxyethyl) (MOE); [5mC] = 5-methylcytosine; d = 2'-deoxy (DNA)
MEASURED_QUANTITY: pIC50

> print(dat)
                                  substance       target.of.assay  value.observed
1  412223 (antisense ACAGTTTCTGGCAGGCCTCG; 5-10-5 MOE gapmer, further chemistry not given here) [compound 412223]  human Factor 11 mRNA            7.68
2  413467 (antisense eG*eG*eT*e[5mC]*e[5mC]*dA*d[5mC]*dA*dT*dA*dA*dA*dT*dG*dT*e[5mC]*eT*eT*eT*eG) [compound 413467]  human Factor 11 mRNA            7.37
3  413476 (antisense eT*eT*eG*eA*eG*dA*dT*dT*d[5mC]*dT*dT*dT*dG*dG*dG*e[5mC]*e[5mC]*eA*eT*eT) [compound 413476]  human Factor 11 mRNA            7.60
4  413482 (antisense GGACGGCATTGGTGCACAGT; 5-10-5 MOE gapmer, further chemistry not given here) [compound 413482]  human Factor 11 mRNA            7.55
5  412203 (antisense eA*eA*eT*eG*eT*d[5mC]*dT*dT*dT*dG*dT*dT*dG*d[5mC]*dA*eA*eG*e[5mC]*eG*e[5mC]) [compound 412203]  human Factor 11 mRNA            7.48
6  412225 (antisense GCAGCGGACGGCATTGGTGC; 5-10-5 MOE gapmer, further chemistry not given here) [compound 412225]  human Factor 11 mRNA            7.64
